Origin of values: patent US20260125454A1

Listing of entries alongside the reported IC50.
# SYSTEM_NAME: CGRP antigen
# PROTOCOL_DESCRIPTION: cell-based or functional assay
ASSAY_METRIC: IC50 (µg/mL)

BINDER	OBSERVED_VALUE
hu224 (antibody, human IgG4 S228P, kappa, V domains shown) VH: QVQLVQSGAEVKKPGASVKVSCKASGYSFTGYTMNWVRQAPGQRLEWMGLINPYIGNTHYNQKFKDRVTFTVDRSSSTAYMELSSLRSEDTAVYYCARELDSGFDYWGQGTLVTVSS VL: DVVMTQSPDSLAVSLGERATINCRSSQNIVHSNGDTYLEWYQQKPGQPPKLLIYKVSNRFSGVPDRFSGSGSGTDFTLTISSLQAEDVAVYYCYQGSHVPWTFGQGTKLEIKR	0.0224
hu37 (antibody, V domains shown, 1F5 HC-1/3E5 LC-1) VH: QVQLVQSGAEVKKPGASVKVSCKASGYTFIDFNMHWVRQAPGQRLEWMGYIYPYNGDVVYNQNFTNRVTLTVDTSSSTAYMELSSLRSEDTAVYYCAREGLGGYWGQGTLVTVSS VL: DIVLTQSPDSLAVSLGERATINCKASQNIDYDGYTYLNWYQQKPGQPPKVLIYSIFNLESGVPDRFSGSGSGTDFTLTISSLQAEDVAVYYCQQSNEVPYTFGQGTKLEIK	0.0784
